solubility at 24 h values for the compounds below.
# TEST_METHOD_NOTES: Aqueous solubility (buffer vs acetonitrile/water, LC-UV)
# Format: physicochemical
# CONDITION_DETAILS: kinetic from dmso stock, buffer pH 6.8, 24 h of shaking, DMSO concentration of 2.5%
EXPERIMENTAL_READOUT: solubility at 24 h

Cc1cc(OCCC(C)(C)O)cc(C)c1-c1ccc(F)c(CNc2cnc([C@H]3C[C@@H]3C(=O)O)cn2)c1
72 µg/mL
Cc1cc(-c2nnn(C)n2)cc(C)c1-c1ccc(F)c2c1CC[C@H]2Oc1ccc([C@H]2C[C@@H]2C(=O)O)cc1 [Example 45 in WO 2013/178575, reference compound]
< 1 µg/mL
Cc1cc(-c2nnn(C)n2)cc(C)c1-c1ccc(F)c(CNc2cnc([C@H]3C[C@@H]3C(=O)O)cn2)c1
47 µg/mL
Cc1cc(OCCC(C)(C)O)cc(C)c1-c1ccc(F)c2c1CC[C@H]2Oc1ccc([C@H]2C[C@@H]2C(=O)O)cc1 [Example 17 in WO 2013/178575, reference compound]
< 1 µg/mL

---

Reported pEC50 is given for each of the following molecules.
# TARGET_UNDER_TEST: human GPR40 receptor (Homo sapiens)
# Sequence (O14842 whole entry): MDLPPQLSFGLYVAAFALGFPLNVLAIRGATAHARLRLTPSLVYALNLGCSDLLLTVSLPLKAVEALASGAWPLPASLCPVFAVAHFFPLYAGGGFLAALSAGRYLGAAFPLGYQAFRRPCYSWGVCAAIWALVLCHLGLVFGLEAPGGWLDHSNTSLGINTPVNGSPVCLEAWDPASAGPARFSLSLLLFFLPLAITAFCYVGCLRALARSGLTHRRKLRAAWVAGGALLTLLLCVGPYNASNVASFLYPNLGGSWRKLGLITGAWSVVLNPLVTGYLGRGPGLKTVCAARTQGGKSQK
# TEST_METHOD_NOTES: IP1 accumulation measurements using the IPOne assay system
# CONDITION_DETAILS: 1321N1 cells stably expressing human GPR40 receptor; stimulated 1 h at 37° C.
pEC50: −log10 of the molar value.
EXPERIMENTAL_READOUT: pEC50

N#CC1(c2ccccc2-c2ccc(F)c(CNc3cnc(C4CC4C(=O)O)cn3)c2)CC1 (stereo not drawn)
7.29
CC(C)c1ccccc1-c1ccc(F)c(CNc2cnc(C3CC3C(=O)O)cn2)c1 (stereo not drawn)
6.81
Cc1cc(-c2nnn(CC(C)(C)O)n2)cc(C)c1-c1ccc(F)c(CNc2cnc(C3CC3C(=O)O)cn2)c1 (stereo not drawn)
8.15
Cc1cc(C(N)=O)cc(C)c1-c1ccc(F)c(CNc2cnc(C3CC3C(=O)O)cn2)c1 (stereo not drawn)
8.00
Cc1cc(C(=O)O)cc(C)c1-c1ccc(F)c(CNc2cnc(C3CC3C(=O)O)cn2)c1 (stereo not drawn)
7.62
Nc1cc(F)c(-c2ccc(F)c(CNc3cnc(C4CC4C(=O)O)cn3)c2)c(F)c1 (stereo not drawn)
6.72
Cc1cc(OCC2(O)CCS(=O)(=O)CC2)cc(C)c1-c1ccc(F)c(CNc2cnc(C3CC3C(=O)O)cn2)c1 (stereo not drawn)
7.00
CC(C)(O)CCOc1ccc(-c2cc(CNc3cnc([C@H]4C[C@@H]4C(=O)O)cn3)ccc2C(F)(F)F)cc1
8.22
Cc1cc(OCC2CCCO2)cc(C)c1-c1ccc(F)c(CNc2cnc(C3CC3C(=O)O)cn2)c1 (mixture of isomers)
5.72
COc1ccc(-c2ccc(-c3cc(CNc4cnc([C@H]5C[C@@H]5C(=O)O)cn4)c(F)cc3F)cc2)nc1
7.72
Cc1cc(-c2ccc(=O)n(C)c2)cc(C)c1-c1ccc(F)c(CNc2cnc(C3CC3C(=O)O)cn2)c1 (stereo not drawn)
7.68
Cc1cc(OCCC(C)(C)O)cc(C)c1-c1ccc(F)c(CNc2cnc([C@H]3C[C@@H]3C(=O)O)cn2)c1
7.80
Cc1cc(C(=O)N(C)C)cc(C)c1-c1ccc(F)c(CNc2cnc(C3CC3C(=O)O)cn2)c1 (stereo not drawn)
7.47
O=C(O)C1CC1c1cnc(NCc2cc(-c3c(F)cccc3F)ccc2F)cn1 (stereo not drawn)
6.24
O=C(O)[C@H]1C[C@@H]1c1cnc(NCc2ccc(C(F)(F)F)c(-c3ccc(OC(F)(F)F)cc3)c2)cn1
8.05
O=C(O)[C@H]1C[C@@H]1c1cnc(NCc2ccc(C(F)(F)F)c(-c3ccc(OCC4CC4)cc3)c2)cn1
7.55
Cc1cc(-c2ccn(C)c(=O)c2)cc(C)c1-c1ccc(F)c(CNc2cnc(C3CC3C(=O)O)cn2)c1 (stereo not drawn)
7.85
Cc1cc(OC2CCOC2)cc(C)c1-c1ccc(F)c(CNc2cnc(C3CC3C(=O)O)cn2)c1 (stereo not drawn)
7.55
COc1cc(-c2cc(C)c(-c3ccc(F)c(CNc4cnc(C5CC5C(=O)O)cn4)c3)c(C)c2)ccn1 (stereo not drawn)
8.30
Cc1cc(OCC2(O)CCSCC2)cc(C)c1-c1ccc(F)c(CNc2cnc(C3CC3C(=O)O)cn2)c1 (stereo not drawn)
7.55
Cc1cc(OCC(=O)O)cc(C)c1-c1ccc(F)c(CNc2cnc(C3CC3C(=O)O)cn2)c1 (stereo not drawn)
6.98
Cc1cc(OCC2(O)CCOCC2)cc(C)c1-c1ccc(F)c(CNc2cnc(C3CC3C(=O)O)cn2)c1 (stereo not drawn)
7.17
Cc1cc(-c2nnn(C)n2)cc(C)c1-c1ccc(F)c(CNc2cnc([C@H]3C[C@@H]3C(=O)O)cn2)c1
8.22
COc1cc(OC)c(-c2ccc(F)c(CNc3cnc(C4CC4C(=O)O)cn3)c2)c(OC)c1 (stereo not drawn)
6.05
Cc1cc(OC2CCOCC2)cc(C)c1-c1ccc(F)c(CNc2cnc(C3CC3C(=O)O)cn2)c1 (stereo not drawn)
7.66
COc1cc(OC)c(Cl)c(-c2ccc(F)c(CNc3cnc(C4CC4C(=O)O)cn3)c2)c1Cl (stereo not drawn)
5.86
CCc1cccc(CC)c1-c1ccc(F)c(CNc2cnc(C3CC3C(=O)O)cn2)c1 (stereo not drawn)
8.40
COc1ccc(-c2ccc(-c3cc(CNc4cnc([C@H]5C[C@@H]5C(=O)O)cn4)c(F)cc3F)cc2)nn1
7.42
O=C(O)C1CC1c1cnc(NCc2cc(-c3ccc(-c4cnco4)cc3)ccc2F)cn1 (stereo not drawn)
6.75
CNC(=O)c1cc(C)c(-c2ccc(F)c(CNc3cnc(C4CC4C(=O)O)cn3)c2)c(C)c1 (stereo not drawn)
6.65
